experiment: qHTS of pediatric cancer cell lines to identify multiple opportunities for drug repurposing: Primary screen for Saos-2 cells (AID 1347097); settings: Saos-2 viability, CellTiter-Glo ATP luminescence, 48 h; series mostly up to 46 µM; note: nearly all actives have a fitted effect of over 40% in size
Records with an inconclusive call do not appear. Active and inactive are the calls of the source. Calls come from the whole dose curve; as a rule, active = well fitted cell-killing curve with a large enough effect; inconclusive = small, poorly fitted or top-dose-only effect; inactive = no such curve, though single readings can be large or run the other way.
Outcome codes: Yes = active, No = inactive

- molecule: "CC(C)(OCc1nn(Cc2ccccc2)c2ccccc12)C(=O)O"
  answer label: "No"
- molecule: "CCCCC(C=O)NC(=O)C(CC(C)C)NC(=O)OCc1ccccc1 (stereo unspecified)"
  answer label: "No"
- molecule: "O=C(Nc1ncc(SCCN2CCCC2)s1)[C@]1(c2ccc(S(=O)(=O)C3CC3)cc2)C[C@@H]1C1CCCCC1"
  answer label: "Yes"
- molecule: "COc1c(C)c2c(c(O)c1CC=C(C)CCC(=O)O)C(=O)OC2"
  answer label: "No"
- molecule: "COc1ccc(-c2oc3c(CC=C(C)C)c(O)cc(O)c3c(=O)c2O)cc1"
  answer label: "Yes"
- molecule: "Nc1[nH]nc2nnc(-c3c(-c4ccccc4)nn4ccccc34)cc12"
  answer label: "Yes"
- molecule: "CC(C)Oc1cc(Nc2nc(N[C@@H](C)c3ccc(F)cn3)ncc2Cl)[nH]n1"
  answer label: "Yes"
- molecule: "CC(C)C[C@@H](C(=O)N[C@H](C(=O)OC1CCCC1)c1ccccc1)[C@H](O)C(=O)NO"
  answer label: "Yes"
- molecule: "N=C1SC(=Cc2ccc(-c3ccc4c(c3)C(=O)NC4=O)o2)C(=O)N1c1ccc(Br)cc1"
  answer label: "No"
- molecule: "Cc1ccc(C(=O)N(CCCN)[C@@H](c2nc3cc(Cl)ccc3c(=O)n2Cc2ccccc2)C(C)C)cc1"
  answer label: "Yes"
- molecule: "CCN(CC)CCCCNc1nc2cc(Cl)c(Cl)cc2nc1-c1ccc(-c2cccs2)s1"
  answer label: "Yes"
- molecule: "C[C@@H]1O[C@@H](O[C@H]2CC[C@@]3(C)[C@H](CC[C@@H]4[C@H]3C[C@@H](O)[C@]3(C)[C@@H](C5=CC(=O)OC5)CC[C@]43O)C2)C[C@H](O)[C@@H]1O[C@H]1C[C@H](O)[C@H](O[C@H]2C[C@H](O)[C@@H](O)[C@@H](C)O2)[C@H](C)O1 (stereo in doubt)"
  answer label: "Yes"
- molecule: "C[C@@H]1CC=CC=CC=CC=C[C@@H](O[C@@H]2O[C@H](C)[C@@H](O)[C@H](N)[C@H]2O)C[C@@H]2O[C@](O)(C[C@@H](O)C[C@@H]3O[C@@H]3C=CC(=O)O1)C[C@H](O)[C@@H]2C(=O)O"
  answer label: "No"
- molecule: "CC[C@@H]([C@H](C)O)n1ncn(-c2ccc(N3CCN(c4ccc(OCC5CO[C@@](Cn6cncn6)(c6ccc(F)cc6F)C5)cc4)CC3)cc2)c1=O (stereo partly specified)"
  answer label: "Yes"
- molecule: "CC(C)(C)c1nc(-c2cccc(NS(=O)(=O)c3c(F)cccc3F)c2F)c(-c2ccnc(N)n2)s1"
  answer label: "No"
- molecule: "CCOC(=O)[C@@H](N)CCC(=O)N[C@@H](CSCc1ccccc1)C(=O)N[C@@H](C(=O)OCC)c1ccccc1"
  answer label: "No"
- molecule: "C[C@@H](O[C@H]1OCCN(Cc2n[nH]c(=O)[nH]2)[C@@H]1c1ccc(F)cc1)c1cc(C(F)(F)F)cc(C(F)(F)F)c1"
  answer label: "Yes"
- molecule: "C[C@@]1(C(=O)Nc2ccc(F)nc2)CCCN1c1nc(Nc2cc(C3CC3)[nH]n2)c2cccn2n1"
  answer label: "Yes"
- molecule: "O=C(Nc1cccc(C(F)(F)F)c1)Nc1cc(S(=O)(=O)NC2CC2)ccc1-c1ccsc1"
  answer label: "Yes"
- molecule: "Cc1nn(Cc2ccccc2Cl)c(C)c1CN(C)CC(O)COc1ccc(Cl)cc1 (stereo unspecified)"
  answer label: "No"
- molecule: "C[C@H](CCC(=O)O)[C@H]1CC[C@H]2[C@H]3[C@@H](CC[C@]12C)[C@@]1(C)CC[C@@H](O)C[C@H]1C[C@@H]3O"
  answer label: "No"
- molecule: "CC[C@]1(O)C[C@H]2CN(CCC3=c4ccccc4=N[C]3[C@@](C(=O)OC)(c3cc4c(cc3OC)N(C)[C@H]3[C@@](O)(C(N)=O)[C@H](O)[C@]5(CC)C=CCN6CC[C@]43[C@@H]65)C2)C1"
  answer label: "Yes"
- molecule: "Cc1ccc(S(=O)(=O)Nc2nc3ccccc3nc2Nc2ccc3nsnc3c2)cc1"
  answer label: "Yes"
- molecule: "O=C(C=Cc1ccc(O)cc1)c1ccc(O)cc1O"
  answer label: "Yes"
- molecule: "CCCCCCCCCCCCCCCC(=O)O[C@H]1[C@@H](O)[C@@H](O)[C@@H]([C@H](NC(=O)[C@@H]2C[C@@H](CCC)CN2C)[C@H](C)Cl)O[C@@H]1SC"
  answer label: "No"
- molecule: "CCC(=C(c1ccc(O)cc1)c1ccc(OCCNC)cc1)c1ccccc1"
  answer label: "Yes"
- molecule: "CC(C)c1onc(-c2c(Cl)cccc2Cl)c1COc1ccc(C=Cc2cccc(C(=O)O)c2)c(Cl)c1"
  answer label: "No"
- molecule: "COc1cc(F)c(C(C)C)cc1-c1ccc(C(F)(F)F)cc1CN1C(=O)O[C@H](c2cc(C(F)(F)F)cc(C(F)(F)F)c2)[C@@H]1C"
  answer label: "No"
- molecule: "CN(C)CCN(C)C(=O)c1ccc(NC(=O)Nc2ccc(-c3nc(N4CCOCC4)c4ccn(CC(F)(F)F)c4n3)cc2)cc1"
  answer label: "Yes"
- molecule: "O=C(O)C1=NC(C(=O)O)CC(C=CN2c3cc(O)c(OC4OC(CO)C(O)C(O)C4O)cc3CC2C(=O)O)=C1 (stereo unspecified)"
  answer label: "No"
- molecule: "O=c1cc(-c2ccc(O)c(O)c2)oc2cc(O)cc(O)c12"
  answer label: "No"

###

system: HEK293; assay: Cytotoxic Profiling of Annotated Libraries Using Quantitative High-Throughput Screening (AID 1296008); details: Five cell lines viability, CellTiter-Glo ATP luminescence, 48-72 h; active compounds read low; note: % is set by controls: 0 for no effect and ±100 for the full control effect; nearly all actives have a fitted effect of over 60% in size
Results filed as inconclusive are left out.

- molecule: "COc1cc2ncn(-c3cc(OCc4ccccc4S(C)(=O)=O)c(C#N)s3)c2cc1OC"
  max response [%]: -13.3
- molecule: "CCOC(=O)[C@@H](N)CCC(=O)N[C@@H](CSCc1ccccc1)C(=O)N[C@@H](C(=O)OCC)c1ccccc1"
  max response [%]: -7.26
- molecule: "OC1CCC(Nc2ncc3nc(Nc4c(F)cc(F)cc4F)n([C@@H]4CCOC4)c3n2)CC1 (stereo partly specified)"
  max response [%]: -2.09
- molecule: "CC[C@H](C)C(=O)O[C@H]1C[C@H](O)C=C2C=C[C@H](C)[C@H](CC[C@@H](O)C[C@@H](O)CC(=O)O)[C@H]21"
  max response [%]: 0.44
- molecule: "CN(C)c1nc(Cc2ccc(NC(=O)c3ccc(C(F)(F)F)cc3)cc2)nc(N(C)C)c1CC(=O)O"
  max response [%]: 3.18
- molecule: "CCNC(=O)Nc1ccc(Oc2ncnc(N)c2C=NOC)cc1Cl"
  max response [%]: -3.24

###

assay: Quantitative High-Throughput drug screen in 47 multiple myeloma cell lines against the NCATS MIPE library collection: Delta47_JCRB cell viability assay (AID 1918925; note: nearly all actives have a fitted effect of over 45% in size); settings: Delta47 myeloma viability, CellTiter-Glo ATP, 48 h; series mostly up to 45.8 µM
Results filed as inconclusive are left out. Active and inactive are the calls of the source. The call rests on the fitted dose curve; in most records, active means well fitted cell-killing curve with a large enough effect; inconclusive means small, poorly fitted or top-dose-only effect, or effect the other way; inactive means no such curve, though single readings can be large or run the other way.
Outcome codes: 1 (yes) (active), 0 (no) (inactive)

- smiles repr: "CC(C)(F)C[C@H](N[C@@H](c1ccc(-c2ccc(S(C)(=O)=O)cc2)cc1)C(F)(F)F)C(=O)NC1(C#N)CC1"
  answer label: "0 (no)"
- smiles repr: "N=C1SC(=Cc2ccc(-c3ccc4c(c3)C(=O)NC4=O)o2)C(=O)N1c1ccc(Br)cc1"
  answer label: "0 (no)"
- smiles repr: "CCC[C@@H](NC(=O)[C@@H]1[C@H]2CCC[C@@H]2CN1C(=O)[C@@H](NC(=O)[C@@H](NC(=O)c1cnccn1)C1CCCCC1)C(C)(C)C)C(=O)C(=O)NC1CC1"
  answer label: "1 (yes)"
- smiles repr: "NC(=O)c1ncn([C@@H]2O[C@H](CO)[C@@H](O)[C@@H]2O)n1"
  answer label: "0 (no)"

###

assay: Quantitative High-Throughput drug screen in 47 multiple myeloma cell lines against the NCATS MIPE library collection: U266_ATCC cell viability assay (AID 1919864); conditions: U266 myeloma viability, CellTiter-Glo ATP luminescence, 48 h; series mostly up to 45.8 µM; note: nearly all actives have a fitted effect of over 35% in size
Results filed as inconclusive are left out. Calls of active or inactive are those of the source. Calls follow the shape of the dose curve; as a rule, active = well fitted cell-killing curve with a large enough effect; inconclusive = small, poorly fitted or top-dose-only effect, or effect the other way; inactive = no such curve, though single readings can be large or run the other way.
Outcome codes: Y for active, N for inactive

- compound: "COc1cc2nc(-c3cc(F)ccc3O)nc(N[C@@H]3CNC[C@@H]3C(C)(C)O)c2cc1OC"
  answer label: "Y"
- compound: "O=C(CCCN1CCN(c2ccc(F)cc2)CC1)NC1c2ccccc2CSc2ccccc21 (stereo not given)"
  answer label: "Y"
- compound: "CCN1C[C@H](C)n2c(c(O)c3c(=O)n(Cc4ccc(F)c(Cl)c4)nc(C(=O)NC)c32)C1=O"
  answer label: "N"
- compound: "CCNC(=O)c1noc(-c2cc(C(C)C)c(O)cc2O)c1-c1ccc(CN2CCOCC2)cc1"
  answer label: "Y"
- compound: "CC(C)(C)c1nc(-c2cccc(NS(=O)(=O)c3c(F)cccc3F)c2F)c(-c2ccnc(N)n2)s1"
  answer label: "Y"
